- tested_on: erbB2 tyrosine kinase (Homo sapiens)
- Construct: Recombinant intracellular fragments of EGFR, erbB2 and erbB4
- Sequence (P04626 676-1255 limits assumed): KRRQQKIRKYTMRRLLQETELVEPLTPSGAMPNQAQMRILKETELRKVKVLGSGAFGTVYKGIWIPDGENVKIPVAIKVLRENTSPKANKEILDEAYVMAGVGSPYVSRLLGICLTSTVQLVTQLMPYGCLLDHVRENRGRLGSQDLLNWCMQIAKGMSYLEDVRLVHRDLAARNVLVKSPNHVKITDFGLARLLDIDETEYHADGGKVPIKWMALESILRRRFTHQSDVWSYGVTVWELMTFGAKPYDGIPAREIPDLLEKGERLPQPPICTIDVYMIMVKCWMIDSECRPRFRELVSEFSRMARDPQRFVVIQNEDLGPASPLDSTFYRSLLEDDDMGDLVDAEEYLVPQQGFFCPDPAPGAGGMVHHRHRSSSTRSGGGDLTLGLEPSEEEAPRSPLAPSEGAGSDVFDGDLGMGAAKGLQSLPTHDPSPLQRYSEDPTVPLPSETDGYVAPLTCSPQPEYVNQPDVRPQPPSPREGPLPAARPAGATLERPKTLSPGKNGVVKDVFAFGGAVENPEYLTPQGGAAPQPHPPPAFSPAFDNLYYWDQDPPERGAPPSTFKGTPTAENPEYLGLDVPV
- measurement_notes: Protein tyrosine kinase phosphorylation assay, Test (a), erbB2
- experimental_context: recombinant intracellular fragment, ATP at Km; read-out: IC50 Test (a): Inhibition of erbB2 tyrosine kinase protein phosphorylation
measurement_name: IC50 (nM)

[[record]]
molecule = "O=C(CO)N1CCC[C@@H]1COc1cccc2ncnc(Nc3ccc4c(cnn4Cc4ccccn4)c3)c12 [Example 1]"
tested_on = "erbB2 tyrosine kinase (Homo sapiens)"
readout_number = 6

[[record]]
molecule = "O=C(CO)N1CCCC[C@@H]1COc1cccc2ncnc(Nc3ccc4c(cnn4Cc4ccccn4)c3)c12 [Example 4]"
tested_on = "erbB2 tyrosine kinase (Homo sapiens)"
readout_number = 5

